- Assay method text: Measurement of parent and metabolite levels in mice (plasma and brain levels after single oral co-dosing)
- Assay type: in vivo
- Measurement setup: mouse, single dose oral, co-dosed, brain
For each record, write down the corresponding Tmax.
Report the figure in min without appending any unit label.

Request: Name the recorded Tmax for [2H]C1([2H])N(C)c2cccc3c2N([C@H]2CCN(CCCC(=O)c4ccc(F)cc4)C[C@@H]32)C1([2H])[2H] [Example 1, p-toluenesulfonate] .
Result: 30

Request: Name the recorded Tmax for CN1CCN2c3c(cccc31)[C@@H]1CN(CCCC(=O)c3ccc(F)cc3)CC[C@@H]12 [Formula Q, reference compound] .
Result: 30

====

- Assay method text: Measurement of parent and metabolite levels in mice (plasma and brain levels after single oral co-dosing)
- Format: in vivo
- Measurement setup: mouse, single dose oral, co-dosed, mean n=3, plasma, 0.5 hr, read-out: Plasma level
- Procedure: The compound of Example 1 and the compound of Formula Q are co-dosed in mice (n=3), and the levels of the both compounds are studied. Procedures for the synthesis of the compound of Formula Q can be found in WO 2008/112280. […] The mean values for maximum concentration, time to maximum concentration, and Area Under the Curve (AUC) for both compounds is determined.
For each record, write down the corresponding concentration at 0.5 h.
Report the figure in ng/mL without appending any unit label.

Request: Name the recorded concentration at 0.5 h for CN1CCN2c3c(cccc31)[C@@H]1CN(CCCC(=O)c3ccc(F)cc3)CC[C@@H]12 [Formula Q, reference compound] .
Result: 34.9

Request: Name the recorded concentration at 0.5 h for [2H]C1([2H])N(C)c2cccc3c2N([C@H]2CCN(CCCC(=O)c4ccc(F)cc4)C[C@@H]32)C1([2H])[2H] [Example 1, p-toluenesulfonate] .
Result: 38.1

====

- Assay method text: Measurement of parent and metabolite levels in mice (plasma and brain levels after single oral co-dosing)
- Format: in vivo
- Measurement setup: mouse, single dose oral, co-dosed, brain
For each record, write down the corresponding Cmax.
Report the figure in ng/g without appending any unit label.

Request: Name the recorded Cmax for [2H]C1([2H])N(C)c2cccc3c2N([C@H]2CCN(CCCC(=O)c4ccc(F)cc4)C[C@@H]32)C1([2H])[2H] [Example 1, p-toluenesulfonate] .
Result: 402

Request: Name the recorded Cmax for CN1CCN2c3c(cccc31)[C@@H]1CN(CCCC(=O)c3ccc(F)cc3)CC[C@@H]12 [Formula Q, reference compound] .
Result: 384

====

- Assay method text: Measurement of parent and metabolite levels in mice (plasma and brain levels after single oral co-dosing)
- Type: in vivo
- Measurement setup: mouse, single dose oral, co-dosed, brain, 0.25-4 hr sampling
For each record, write down the corresponding AUC.
Report the figure in ng·h/mL without appending any unit label.

Request: Name the recorded AUC for [2H]C1([2H])N(C)c2cccc3c2N([C@H]2CCN(CCCC(=O)c4ccc(F)cc4)C[C@@H]32)C1([2H])[2H] [Example 1, p-toluenesulfonate] .
Result: 404

Request: Name the recorded AUC for CN1CCN2c3c(cccc31)[C@@H]1CN(CCCC(=O)c3ccc(F)cc3)CC[C@@H]12 [Formula Q, reference compound] .
Result: 387

====

For each record, write down the corresponding concentration at 1 h.
- Assay method text: Measurement of parent and metabolite levels in mice (plasma and brain levels after single oral co-dosing)
- Type: in vivo
- Measurement setup: mouse, single dose oral, co-dosed, mean n=3, plasma, 1 hr, read-out: Plasma level
Report the figure in ng/mL without appending any unit label.

Request: Name the recorded concentration at 1 h for [2H]C1([2H])N(C)c2cccc3c2N([C@H]2CCN(CCCC(=O)c4ccc(F)cc4)C[C@@H]32)C1([2H])[2H] [Example 1, p-toluenesulfonate] .
Result: 11.6

Request: Name the recorded concentration at 1 h for CN1CCN2c3c(cccc31)[C@@H]1CN(CCCC(=O)c3ccc(F)cc3)CC[C@@H]12 [Formula Q, reference compound] .
Result: 11
